Where these numbers come from: PubChem BioAssay (NCI)

- Test system: ACHN renal
- assay-notes: NCI tumour cell line growth inhibition, 48 h
Each record here notes measured TGI.
Numeric only. Scale: µM

Record excerpt, results attached:
Cc1c2c3ccccc3nc-2n(C)c2ccccc12    6.23
CN(C)CCNc1ccc(CO)c2sc3ccc(O)cc3c(=O)c12    6.75

Alright, here's another compound for you.
## Input Return reported TGI. Input compound: `C=CCNc1nc2c(s1)C(=O)c1ccccc1C2=O`
## Output 20.2

====

Each record here notes measured TGI.
- Tested on: NCI-H522 lung
- assay-notes: NCI tumour cell line growth inhibition, 48 h

CCP(=O)(CC)C(Cl)Cl    > 100 µM
O=C(O)c1ccc(NCn2nc(-c3ccccc3O)oc2=S)cc1    > 100 µM
Cc1ccc(NC=O)c(-c2c(N)[nH]c(=S)[nH]c2=O)c1    > 100 µM

## Input Return reported TGI. Input molecule: `CCOC(=O)Nc1nc2ccc(OC)cc2s1`
## Output > 100 µM

## Input Return reported TGI. Input molecule: O=c1cc(CO)oc2c3c(cc(O)c12)OCC(COC1OC(CO)C(O)C(O)C1O)=CC3 (centres undefined)
## Output > 100 µM

## Input Return reported TGI. Input molecule: `O=C(/C=C/c1ccc(-c2ccccc2)cc1)NCc1ccc(C(=O)NCc2ccccc2)cc1`
## Output > 100 µM

## Input Return reported TGI. Input molecule: CC(=O)N/N=C1\CC(C)(C)C2CCC1C2 (centres undefined)
## Output > 100 µM

## Input Return reported TGI. Input molecule: NC(=S)/N=C(/c1nc2ccc(Cl)cc2[nH]c1=O)C(O)c1ccccc1Cl (centres undefined)
## Output > 100 µM

## Input Return reported TGI. Input molecule: `COc1ccc(-n2[nH]nc(C(N)=O)c2=O)cc1`
## Output > 100 µM

====

- Test system: ACHN renal
- assay-notes: NCI tumour cell line growth inhibition, 48 h
metric-name: TGI

O=C1CC2C(=O)c3ccccc3CC2c2ccccc21 (configuration not stated)    > 100 µM
COc1ccc(C(=O)O[C@H]2[C@@H]3C=CO[C@@H](OC4OC(CO)C(O)C(O)C4O)[C@@H]3[C@@]3(CO)O[C@@H]23)cc1O (some centres not stated)    > 100 µM

## Input Return reported TGI. Input molecule: CN1C/C(=C\c2cccs2)C(O)/C(=C/c2cccs2)C1 (configuration not stated)
## Output > 100 µM

## Input Return reported TGI. Input molecule: `CN(Cc1cnc2nc(N)nc(N)c2n1)c1ccc(C(=O)N[C@@H](CCC(=O)O)C(=O)O)cc1`
## Output > 233 µM

## Input Return reported TGI. Input molecule: O=c1cc(CO)oc2c3c(cc(O)c12)OCC(COC1OC(CO)C(O)C(O)C1O)=CC3 (configuration not stated)
## Output > 100 µM

## Input Return reported TGI. Input molecule: `Cc1cnc2sn(-c3ccc([N+](=O)[O-])cc3)c(=O)c2c1`
## Output > 100 µM

## Input Return reported TGI. Input molecule: CC1/C=C/[C@@]2(C)CCC(C(C)(C)O)C2C(O)C[C@](C)(O)/C=C/C1 (some centres not stated)
## Output > 100 µM

====

- Test system: ACHN renal
- assay-notes: NCI tumour cell line growth inhibition, 48 h
Each record here notes measured TGI.
Numeric only. Scale: µM

CCOc1ccc2[nH]c3c(C)c4ccncc4c(C)c3c2c1    2.25

## Input Return reported TGI. Input molecule: `O=S(=O)(NCCNc1nccc(-c2c(-c3ccc(F)c(O)c3)nc3sccn23)n1)c1ccc(F)cc1`
## Output 28.5

## Input Return reported TGI. Input molecule: `Nc1ccccc1C#C/C=C\C#Cc1ccc(OCCCNC(=O)c2cc3ccccc3[nH]2)cc1`
## Output 40.9

## Input Return reported TGI. Input molecule: `NS(=O)(=O)c1ccc(-n2nc3c(c2-c2ccc(Cl)cc2)Cc2ccccc2-3)cc1`
## Output 34.6

## Input Return reported TGI. Input molecule: `Cn1c(-c2c(N)n(Nc3cccc(Cl)c3)c3nc(C#N)c(C#N)nc23)nc2ccccc21`
## Output 15

## Input Return reported TGI. Input molecule: `CS(=O)(=O)OCCN(CCOS(C)(=O)=O)c1ccc(C=Nc2cccc(Cl)c2)cc1`
## Output 0.651

## Input Return reported TGI. Input molecule: `C=CCn1c(C)nc2ccc(Nc3nc(Nc4ccc(F)cc4)nc4ccccc34)cc21`
## Output 4.31
